This section presents pIC50 values reported for UniProtKB P33261 in the literature.
pIC50: −log10 of the molar value.

Before answering, review these 8 worked examples.
| Compound | Recorded Endpoint | Reported Value |
| --- | --- | --- |
| COc1ccc(C(Oc2ccc(N(CC(=O)O)S(=O)(=O)c3c(C)cc(C)cc3C)c3ccccc23)C(=O)O)cc1 (stereo unspecified) | pIC50 | < 5.00 |
| COc1cc(NC(C(=O)c2c[nH]c3ccccc23)c2ccccc2)cc(OC)c1 (racemic) | pIC50 | 5.40 |
| COc1cccc(C(=O)c2ccc3ccc(C(=O)O)ccc2-3)c1 | pIC50 | < 4.30 |
| Cc1cc(Nc2cc(C)c(C#N)c(N[C@@H](C)CCCC(C)(C)O)n2)n[nH]1 | pIC50 | > 6.40 |
| CNC(=O)C(=O)NCCCC/C=C\CCCCCCCOCC(=O)O | pIC50 | 4.34 |
| COc1ccc(-c2cc(C)c3nc(-c4c(N[C@H](CO)Cc5ccccc5)cc[nH]c4=O)[nH]c3c2)cc1 | pIC50 | 5.66 |
| COC(=O)C(C)(C)C(c1ccc(Nc2ccc3ccccc3c2)cc1)n1cncn1 (stereo unspecified) | pIC50 | 5.50 |
| Nc1nc2cc(-c3ccc4ncc(C(=O)N5CCOCC5)n4c3)ccc2o1 | pIC50 | < 5.00 |

Lookup: For the record "Nc1nc2ccc(C(=O)NCCc3c[nH]c4ccccc34)cc2s1" , what value of pIC50 is listed for UniProtKB P33261?
Found: 4.60 to 5.00

Lookup: Same read-out for "CCO[C@@H]1Cc2cc(C(F)(F)F)ccc2[C@H]1N1CCN(C2(C)CCN(C(=O)c3c(C)ncnc3C)CC2)C[C@@H]1C" ?
Found: < 4.60

Lookup: Same read-out for "Cc1[nH]nc2ccc(-c3cc(OC[C@@H](N)Cc4c[nH]c5ccccc45)cnc3-c3ccoc3)cc12" ?
Found: 5.70

---

This section presents pIC50 values reported for Cytochrome P450 2C19 (Homo sapiens, UniProt P33261) in the literature.
pIC50: −log10 of the molar value.

Before answering, review these 3 worked examples.
| Compound | Target Or System | Recorded Endpoint | Reported Value |
| --- | --- | --- | --- |
| CCS(=O)(=O)c1ccc(O[C@@H](C)C(F)(F)F)c(C(=O)N2Cc3cn(-c4cncc(F)c4)nc3C2)c1 | Cytochrome P450 2C19 (Homo sapiens, UniProt P33261) | pIC50 | < 5.00 |
| Cc1oc(-c2ccc(Cl)cc2)nc1CCOc1cccc(C[C@@H]2C(=O)N(c3ccc(C(C)(C)C)cc3)[C@@H]2C(=O)O)c1 | Cytochrome P450 2C19 (Homo sapiens, UniProt P33261) | pIC50 | 5.55 |
| Cc1ccccc1C(OCCN(C)C)c1ccccc1 (stereo not drawn) | Cytochrome P450 2C19 (Homo sapiens, UniProt P33261) | pIC50 | 4.62 |

Lookup: Given the compound "CS(=O)(=O)c1cccc(C(=O)N2CCC(c3ccc(C(=O)NC(=N)N)cc3C(F)(F)F)CC2)c1" , what is its reported pIC50?
Found: < 4.52

Lookup: Same read-out for "O=C(NO)c1cnc(N2C[C@@H]3[C@H](C2)[C@H]3NS(=O)(=O)c2ccc3ccccc3c2)nc1" ?
Found: 5.00

Lookup: Same read-out for "C[C@@H]1CCCN1CCCOc1ccc2c(c1)CCc1cc(=O)n(C)nc1-2" ?
Found: < 4.52

Lookup: Same read-out for "C[C@@H](Cn1c(=O)[nH]/c(=N\c2ccc(Oc3ccsn3)cc2)n(Cc2ccc(Cl)cc2)c1=O)C(=O)O" ?
Found: < 4.70

Lookup: Same read-out for O=C(N[C@H]1C[C@@H]1c1ccccc1)c1ccc2nonc2c1 (racemic) ?
Found: > 5.00

---

This section presents IC50 values reported for Cytochrome P450 2C19 (Homo sapiens, UniProt P33261) in the literature.

Before answering, review these 4 worked examples.
| Compound | IC50 |
| --- | --- |
| Cc1ccncc1-c1ccc2c(c1)CC(NS(=O)(=O)C(C)C)C2 (centres undefined) | > 10 µM |
| C[C@@H]1CCCN1CCCOc1ccc(C(=O)CN2CCN(C(=O)c3ccccc3)CC2)cc1 | > 30 µM |
| COc1cc(N2C(=O)N(Cc3c(F)cc(F)cc3F)c3ncccc3S2(=O)=O)cnc1OC | > 10 µM |
| Nc1nc2ccc(C(=O)N(Cc3ccccc3)Cc3ccc(Cl)c(Cl)c3)cc2s1 | < 10 µM |

Lookup: Given the compound "O=C1NN=C(c2ccc(OC3CCN(C4CCC4)CC3)cc2)[C@H]2C[C@@H]12" , what is its reported IC50?
Found: > 30 µM

---

pIC50: −log10 of the molar value.
This section presents pIC50 values reported for Cytochrome P450 2C19 (Homo sapiens, UniProt P33261) in the literature.
Recorded Endpoint: pIC50

A = C[C@@](O)(CS(C)(=O)=O)C(=O)N[C@@H]1CC[C@@]2(S(=O)(=O)c3ccc(F)cc3)c3ccc(C(F)(C(F)(F)F)C(F)(F)F)cc3CC[C@@H]12
B = FC(F)Oc1cc(-n2cc(Cn3ccnc3)nn2)ccc1Cl
C = O[C@@](Cn1cnnn1)(c1ccc(F)cc1F)C(F)(F)c1ccc(-c2ccc(OCC(F)(F)F)cc2)cn1
Lookup: Could you put the items above in increasing order of their pIC50? Please respond by ranking the labels in the order requested.
Found: C, A, B
(C: 4.14, A: 4.82, B: 6.38)

---

pIC50: −log10 of the molar value.
This section presents pIC50 values reported for UniProt:P33261 in the literature.
Recorded Endpoint: pIC50

Before answering, review these 2 worked examples.
| Compound | pIC50 |
| --- | --- |
| CN(C)C(=O)c1ccc(N(Cc2ccc(Br)o2)C(=O)c2ccc(O)cc2O)cc1 | 5.37 |
| CCN[C@H]1CC[C@@H](c2c[nH]c3ccc(NC(=N)c4cccs4)cc32)CC1 | 4.63 |

I = COc1cc(C(F)(F)F)cc(SC)c1C(=O)N[C@@]1(c2ccccc2)CCCN(C)C1
II = CCC1(C)NC(=O)c2cc(S(=O)(=O)Nc3ccc(F)cc3F)cc(Cl)c2NC1=O (centres undefined)
Lookup: Out of I and II , name the one with the higher pIC50. Reply briefly: the label of your chosen item.
Found: II

---

This section presents IC50 values reported for Cytochrome P450 2C19 (Homo sapiens, UniProt P33261) in the literature.

| Compound | IC50 |
| --- | --- |
| CN(C)Cc1ccc(/C=C/c2n[nH]c3cc([C@@H]4C[C@@]45C(=O)Nc4ccccc45)ccc23)cc1 (relative stereo) | > 1 µM |

Lookup: Given the compound "CC(=O)N[C@@H](C)/C=C/c1ccc(Oc2ccc(OCCF)cc2Cl)nc1" , what is its reported IC50?
Found: > 20 µM

Lookup: Same read-out for "CN(C)CCN1CCCc2cc(NC(=N)c3cccs3)ccc21" ?
Found: > 100 µM

Lookup: Same read-out for "COc1cc2c(cc1C(F)(F)F)N(C(=O)Nc1cc(F)cc(-c3cccnc3)c1)CC2" ?
Found: > 100 µM

---

This section presents IC50 values reported for Cytochrome P450 2C19 (Homo sapiens) in the literature.
Recorded Endpoint: IC50 (µM)

Before answering, review these 2 worked examples.
| Compound | Target Or System | Reported Value |
| --- | --- | --- |
| Cc1cccc(C)c1CNc1nc(-c2cccc(=O)[nH]2)cc2c(C)c(C)[nH]c12 | Cytochrome P450 2C19 (Homo sapiens) | 62 |
| N#Cc1ccc(-n2ccnc2)c(NC(=O)c2cnc(-c3ccccc3)s2)c1 | Cytochrome P450 2C19 (Homo sapiens) | 15.9 |

1 = O=C1NC(c2ccc(F)cc2)(c2ccc(F)cc2)CN1C1CCN(Cc2cccc(F)c2)CC1
2 = Cc1ccc2c(C(=O)O)c(O)c(-c3ccc(Cl)cc3)nc2c1C
3 = Cc1cc(-c2csc(-c3cccc(O)c3)c2)ccc1O
4 = Cc1ccc2c(OCCN3CCN(Cc4ccc5c(c4)N(Cc4ccccc4)C(=O)CO5)CC3)cccc2n1
Lookup: Highest IC50 first, then in falling order down to the smallest. Please respond by ranking the labels in the order requested.
Found: 1, 4, 3, 2
(1: 17.4 µM, 4: 11 µM, 3: 1.5 µM, 2: 1 µM)

---

This section presents pIC50 values reported for UniProt P33261 in the literature.
pIC50: −log10 of the molar value.
Recorded Endpoint: pIC50

A = Fc1cccnc1OCc1cn(C2CCC(Cl)C(OC(F)F)C2)nn1 (centres undefined)
B = O=C(Nc1nc2cccc(C3CCC4(CC3)CCN(C(=O)[C@@H]3CC3(F)F)C4)n2n1)C1CC1 (some centres undefined)
Lookup: Out of A and B , name the one with the higher pIC50. Reply briefly: the label of your chosen item.
Found: A
(A: 5.28, B: 4.19)

A = N#Cc1cccc(-c2ccc3ncc(-c4cc(F)cc(F)c4)c(N4CCC(N)CC4)c3c2)c1O
B = COCC(=O)Nc1cc2cccccc-2c1
Lookup: Out of A and B , name the one with the higher pIC50. Reply briefly: the label of your chosen item.
Found: A
(A: 5.30, B: 4.66)
